- test name: Stability of example compounds in solid form (HPLC)
- Assay type: physicochemical
- recorded conditions: solid, amber vial under Ar, 1 week, 0° C.
So I've got a bunch of compounds here, and I need their Solid (%) 1 week 0° C. values.

Here is how some compounds turned out for Solid (%) 1 week 0° C..
CC(C)(C)OC(=O)[C@@H](CCCOS(=O)(=O)c1ccc(-c2ccc(S(=O)(=O)OCCC[C@@H](C[C@H](NC(c3ccccc3)(c3ccccc3)c3ccccc3)C(=O)OC(C)(C)C)C(=O)OC(C)(C)C)cc2)cc1)C[C@H](NC(c1ccccc1)(c1ccccc1)c1ccccc1)C(=O)OC(C)(C)C = 97.9%
CC(C)(C)OC(=O)[C@@H](CCCOS(=O)(=O)c1ccc2ccccc2c1)C[C@H](NC(c1ccccc1)(c1ccccc1)c1ccccc1)C(=O)OC(C)(C)C = 99.8%

Next, consider the following compound.
Ask | # return recorded Solid (%) 1 week 0° C. for input `CC(C)(C)OC(=O)[C@@H](CCCOS(=O)(=O)c1ccc([N+](=O)[O-])c(C(F)(F)F)c1)C[C@H](NC(c1ccccc1)(c1ccccc1)c1ccccc1)C(=O)OC(C)(C)C`
Reply | 94.4%
